assay: Solubility limit in assay medium; assay type: physicochemical; conditions: bacterial growth broth (LB or MHB), 37 °C, plasma or biological fluid, kinetic from dmso stock, final DMSO at or below 2%
measured property: solubility

                                   molecule   result
0  O=C(Nc1cc(Cl)cc(Cl)c1)N1CCCN(Cc2ccccc2)CC1 [D66]  ~150 µM

---

experiment: Murine pharmacokinetic analysis; type: in vivo, C57BL/6 mice; details: female, C57BL/6, mouse, plasma; mice, 50 mg/kg IP, two-compartment model; read-out: elimination (terminal) half-life (converted)
measured property: half-life (h)

>>> df
                                   compound  measured_property  recorded_number
0  O=C(Nc1cc(Cl)cc(Cl)c1)N1CCCN(Cc2ccccc2)CC1 [D66]          half-life                3
